MEASURED_ON: GRK2 (Homo sapiens)
MEASUREMENT_NOTES: GRK2 Degradation Assay and Western Blot in PAXF1657 cells
Assay type: cell-based
Set-up: endogenous in cells; host or cells: PAXF1657
CONDITION_NOTES: Conc 3 uM; read-out: Degradation Assay - 3 point: Degradation (%)
REPORTED_ENDPOINT: inhibition at 3 µM

- COMPOUND: "C[C@@H](NC(=O)c1cccc(NCc2nnc(-c3ccncn3)n2C)c1)c1cccc(OCCCCCCOCCOCCOCCC(=O)N2CCN(c3cc4c(cc3F)C(=O)N(C3CCC(=O)NC3=O)C4=O)CC2)c1 (stereo partly shown)"
  RECORDED_VALUE: "90.7%"
- COMPOUND: "C[C@@H](NC(=O)c1cccc(NCc2nnc(-c3ccncn3)n2C)c1)c1cccc(OCCCCCOCCCOCCNc2cccc3c2CN(C2CCC(=O)NC2=O)C3=O)c1 (stereo partly shown)"
  RECORDED_VALUE: "38.9%"
- COMPOUND: "Cc1ncsc1-c1ccc(CNC(=O)[C@@H]2C[C@@H](O)CN2C(=O)[C@@H](NC(=O)CCCCOCCOCCOCCCCCCOc2cccc(CNC(=O)c3cccc(NCc4nnc(-c5ccncn5)n4C)c3)c2)C(C)(C)C)cc1"
  RECORDED_VALUE: "66.6%"
- COMPOUND: "C[C@@H](NC(=O)c1cccc(NCc2nnc(-c3ccncn3)n2C)c1)c1cccc(OCCCCCCn2cc(CCCCC(=O)Nc3cccc4c3CN(C3CCC(=O)NC3=O)C4=O)nn2)c1 (stereo partly shown)"
  RECORDED_VALUE: "68.1%"
- COMPOUND: "Cc1ncsc1-c1ccc(CNC(=O)[C@@H]2C[C@@H](O)CN2C(=O)[C@@H](NC(=O)COCCCOCCCCCOc2cccc([C@H](C)NC(=O)c3cccc(NCc4nnc(-c5ccncn5)n4C)c3)c2)C(C)(C)C)cc1"
  RECORDED_VALUE: "20.6%"
- COMPOUND: "C[C@@H](NC(=O)c1cccc(NCc2nnc(-c3ccncn3)n2C)c1)c1cccc(OCCCCCCn2cc(CCC(=O)Nc3cccc4c3CN(C3CCC(=O)NC3=O)C4=O)nn2)c1 (stereo partly shown)"
  RECORDED_VALUE: "64.5%"
- COMPOUND: "Cn1c(CNc2cccc(C(=O)N[C@@H]3CCOc4ccc(OCCCCCOCCCOCC(=O)Nc5cccc6c5CN(C5CCC(=O)NC5=O)C6=O)cc43)c2)nnc1-c1ccncn1 (stereo partly shown)"
  RECORDED_VALUE: "56.2%"
- COMPOUND: "C[C@@H](NC(=O)c1cccc(NCc2nnc(-c3ccncn3)n2C)c1)c1cccc(OCCCCCOCCCOCCOc2ccc3c(c2)CN(C2CCC(=O)NC2=O)C3=O)c1 (stereo partly shown)"
  RECORDED_VALUE: "83%"
- COMPOUND: "C[C@@H](NC(=O)c1cccc(NCc2nnc(-c3ccncn3)n2C)c1)c1cccc(OCCCCCOCCCOCC(=O)N2CCN(c3ccc4c(c3)CN(C3CCC(=O)NC3=O)C4=O)CC2)c1 (stereo partly shown)"
  RECORDED_VALUE: "86%"
- COMPOUND: "Cn1c(CNc2cccc(C(=O)N[C@@H]3CCOc4ccc(OCCCCCCOCCOCCOCCCCCC(=O)Nc5cccc6c5CN(C5CCC(=O)NC5=O)C6=O)cc43)c2)nnc1-c1ccncn1 (stereo partly shown)"
  RECORDED_VALUE: "63.1%"

* * *

Tested on: PAXF1657 KO Clone #4
MEASUREMENT_NOTES: 7-day cellular proliferation assay (CellTiter-Glo), PAXF1657 KO Clone #4
Assay type: cell-based
CONDITION_NOTES: proliferation, read-out: GeoMean IC50 (uM) PAXF1657 KO Clone #4

- COMPOUND: "C[C@@H](NC(=O)c1cccc(NCc2nnc(-c3ccncn3)n2C)c1)c1cccc(OCCCCCCOCCOCCOCCCC(=O)N2CCN(c3cc4c(cc3F)C(=O)N(C3CCC(=O)NC3=O)C4=O)CC2)c1 (stereo partly drawn)"
  IC50: "> 30 µM"
- COMPOUND: "C[C@@H](NC(=O)c1cccc(NCc2nnc(-c3ccncn3)n2C)c1)c1cccc(OCCCCCCOCCOCCOCCCC(=O)N2CCN(c3ccc4c(c3)CN(C3CCC(=O)NC3=O)C4=O)CC2)c1 (stereo partly drawn)"
  IC50: "> 30 µM"
- COMPOUND: "Cc1ncsc1-c1ccc(CNC(=O)[C@@H]2C[C@@H](O)CN2C(=O)[C@@H](NC(=O)CCCCCOCCOCCOCCCCCCOc2cccc([C@H](C)NC(=O)c3cccc(NCc4nnc(-c5ccncn5)n4C)c3)c2)C(C)(C)C)cc1"
  IC50: "6.82 µM"

* * *

The following compounds are listed with their measured inhibition at 1 µM values.
MEASURED_ON: GRK2 (Homo sapiens, UniProt P25098)
Sequence (P25098 whole entry): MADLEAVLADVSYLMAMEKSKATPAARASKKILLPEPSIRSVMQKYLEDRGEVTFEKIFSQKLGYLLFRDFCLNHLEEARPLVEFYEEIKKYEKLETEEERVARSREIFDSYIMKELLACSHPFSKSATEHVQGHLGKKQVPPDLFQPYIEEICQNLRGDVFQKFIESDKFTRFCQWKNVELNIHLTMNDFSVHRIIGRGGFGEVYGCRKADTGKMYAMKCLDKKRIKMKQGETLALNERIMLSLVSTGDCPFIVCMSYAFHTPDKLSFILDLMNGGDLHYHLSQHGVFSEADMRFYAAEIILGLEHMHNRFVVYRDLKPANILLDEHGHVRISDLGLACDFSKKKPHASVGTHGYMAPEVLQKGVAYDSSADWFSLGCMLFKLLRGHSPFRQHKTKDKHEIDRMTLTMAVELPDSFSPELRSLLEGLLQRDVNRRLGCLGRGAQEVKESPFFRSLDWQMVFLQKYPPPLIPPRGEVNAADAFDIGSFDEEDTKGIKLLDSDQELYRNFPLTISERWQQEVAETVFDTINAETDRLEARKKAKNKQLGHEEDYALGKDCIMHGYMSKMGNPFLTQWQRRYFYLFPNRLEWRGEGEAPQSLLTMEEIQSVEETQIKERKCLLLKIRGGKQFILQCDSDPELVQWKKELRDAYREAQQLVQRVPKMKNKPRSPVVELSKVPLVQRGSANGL
MEASUREMENT_NOTES: GRK2 Degradation Assay and Western Blot in PAXF1657 cells
Format: cell-based
Set-up: endogenous in cells; host or cells: PAXF1657
CONDITION_NOTES: Conc 1 uM; read-out: Degradation Assay - 3 point: Degradation (%)

- COMPOUND: "C[C@@H](NC(=O)c1cccc(NCc2nnc(-c3ccncn3)n2C)c1)c1cccc(OCCCCCCOCCOCCOCCCC(=O)N2CCN(c3cc4c(cc3F)C(=O)N(C3CCC(=O)NC3=O)C4=O)CC2)c1 (stereo partly shown) [Compound D178]"
  inhibition at 1 µM (%): 72
- COMPOUND: "C[C@@H](NC(=O)c1cccc(NCc2nnc(-c3ccncn3)n2C)c1)c1cccc(OCCCCCOCCCOCCOc2cccc3c2CN(C2CCC(=O)NC2=O)C3=O)c1 (stereo partly shown) [Compound D198]"
  inhibition at 1 µM (%): 81.6
- COMPOUND: "C[C@@H](NC(=O)c1cccc(NCc2nnc(-c3ccncn3)n2C)c1)c1cccc(OCCCCCOCCCOCC(=O)Nc2cccc3c2CN(C2CCC(=O)N(C)C2=O)C3=O)c1 (stereo partly shown) [Compound D194]"
  inhibition at 1 µM (%): 15
- COMPOUND: "Cc1ncsc1-c1ccc(CNC(=O)[C@@H]2C[C@@H](O)CN2C(=O)[C@@H](NC(=O)COCCCOCCCCCOc2cccc([C@H](C)NC(=O)c3cccc(NCc4nnc(-c5ccncn5)n4C)c3)c2)C(C)(C)C)cc1 [Compound D184]"
  inhibition at 1 µM (%): 17.7

* * *

MEASURED_ON: GRK2 (Homo sapiens, UniProt P25098)
MEASUREMENT_NOTES: GRK2 Degradation Assay and Western Blot in PAXF1657 cells
Type: cell-based
Parameters: endogenous in cells; host or cells: PAXF1657
CONDITION_NOTES: Conc 0.3 uM; read-out: Degradation Assay - 3 point: Degradation (%)
Counter-ions that a name gives are not always drawn.

- COMPOUND: "Cc1ncsc1-c1ccc(CNC(=O)[C@@H]2C[C@@H](O)CN2C(=O)[C@@H](NC(=O)COCCCOCCCCCOc2ccc3c(c2)[C@H](NC(=O)c2cccc(NCc4nnc(-c5ccncn5)n4C)c2)CCO3)C(C)(C)C)cc1 [Compound D161]"
  inhibition at 0.3 µM / %: 15
- COMPOUND: "Cc1ncsc1-c1ccc(CNC(=O)[C@@H]2C[C@@H](O)CN2C(=O)[C@@H](NC(=O)CCCOCCOCCOCCCCCCOc2ccc([C@@H](C)NC(=O)c3cccc(NCc4nnc(-c5ccncn5)n4C)c3)cc2)C(C)(C)C)cc1 [Compound D116]"
  inhibition at 0.3 µM / %: 15
- COMPOUND: "C[C@H](NC(=O)c1cccc(NCc2nnc(-c3ccncn3)n2C)c1)c1cccc(OCCCCCOCCCOCC(=O)Nc2cccc3c2CN(C2CCC(=O)NC2=O)C3=O)c1 (some centres unmarked) [Compound D185]"
  inhibition at 0.3 µM / %: 1.79
- COMPOUND: "C[C@@H](NC(=O)c1cccc(NCc2nnc(-c3ccncn3)n2C)c1)c1cccc(OCCCCCCOCCN2CCN(c3cc4c(cc3F)C(=O)N(C3CCC(=O)NC3=O)C4=O)CC2)c1 (some centres unmarked) [Compound D134]"
  inhibition at 0.3 µM / %: 64.1
- COMPOUND: "C[C@@H](NC(=O)c1cccc(NCc2nnc(-c3ccncn3)n2C)c1)c1cccc(C(=O)N2CCC(CCCN3CCN(c4ccc5c(c4)CN(C4CCC(=O)NC4=O)C5=O)CC3)CC2)c1 (some centres unmarked) [Compound D119, hydrochloride]"
  inhibition at 0.3 µM / %: 90

* * *

inhibition at 0.3 µM overview
MEASURED_ON: GRK2 (Homo sapiens)
MEASUREMENT_NOTES: GRK2 Degradation Assay and Western Blot in PAXF1657 cells
Type: cell-based
Set-up: endogenous in cells; host or cells: PAXF1657
CONDITION_NOTES: 0.3 uM, PAXF1657 EV, 24 hrs; read-out: % GRK2 degradation at 0.3 uM in PAXF1657 EV (24 hrs)

- COMPOUND: "Cc1ncsc1-c1ccc(CNC(=O)[C@@H]2C[C@@H](O)CN2C(=O)[C@@H](NC(=O)CCCCCOCCOCCOCCCCCCOc2cccc([C@@H](C)NC(=O)c3cccc(NCc4nnc(-c5ccncn5)n4C)c3)c2)C(C)(C)C)cc1 [Compound D79]"
  MEASURED_ON: "GRK2 (Homo sapiens)"
  inhibition at 0.3 µM / %: 52
- COMPOUND: "Cn1c(CNc2cccc(C(=O)NCc3cccc(OCCCCCn4cc(CCCCC(=O)Nc5cccc6c5CN(C5CCC(=O)NC5=O)C6=O)nn4)c3)c2)nnc1-c1ccncn1 (centres unmarked) [Compound D58]"
  MEASURED_ON: "GRK2 (Homo sapiens)"
  inhibition at 0.3 µM / %: 7
- COMPOUND: "Cn1c(CNc2cccc(C(=O)NCc3cccc(OCCCCCCOCCOCCOCCCCCC(=O)Nc4cccc5c4CN(C4CCC(=O)NC4=O)C5)c3)c2)nnc1-c1ccncn1 (centres unmarked) [Compound D73]"
  MEASURED_ON: "GRK2 (Homo sapiens)"
  inhibition at 0.3 µM / %: 48
- COMPOUND: "Cn1c(CNc2cccc(C(=O)NCc3cccc(OCCCCCCn4cc(CCCCC(=O)Nc5cccc6c5CN(C5CCC(=O)NC5=O)C6=O)nn4)c3)c2)nnc1-c1ccncn1 (centres unmarked) [Compound D62]"
  MEASURED_ON: "GRK2 (Homo sapiens)"
  inhibition at 0.3 µM / %: 35
- COMPOUND: "Cn1c(CNc2cccc(C(=O)NCc3cccc(OCCCCCCOCCOCCOCCCC(=O)Nc4cccc5c4CN(C4CCC(=O)NC4=O)C5=O)c3)c2)nnc1-c1ccncn1 (centres unmarked) [Compound D56]"
  MEASURED_ON: "GRK2 (Homo sapiens)"
  inhibition at 0.3 µM / %: 25
